system: HeLa; test: MALAT1 nuclear FISH intensity, robust Z-score vs DMSO; higher = more nuclear MALAT1 lncRNA, active = -3 or less; conditions: 10 µM; 6 h
Counter-ions that a name gives are not always drawn.
ENDPOINT_NAME: MALAT1 nuclear FISH intensity
Could you keep your reply to the number by itself?

// Input: CC[C@]1(O)C[C@@H]2CN(CCc3c([nH]c4ccccc34)[C@@](C(=O)OC)(c3cc4c(cc3OC)N(C)[C@H]3[C@@](O)(C(=O)OC)[C@H](OC(C)=O)[C@]5(CC)C=CCN6CC[C@]43[C@@H]65)C2)C1 [Vinblastine Sulfate] . Output its MALAT1 nuclear FISH intensity only. 0.463

Find the measured MALAT1 nuclear FISH intensity of Nc1ncnc2c1ncn2C1CCCO1 (centres undefined) and report it. -1.6

Using known records, supply MALAT1 nuclear FISH intensity for CCCNCC(O)COc1ccccc1C(=O)CCc1ccccc1 (centres undefined) 1.18

Recall and state the measured MALAT1 nuclear FISH intensity for CCCc1cc(=O)[nH]c(=S)[nH]1 . -0.217

Quick one: give measured MALAT1 nuclear FISH intensity for CCCCCCCC(=O)OC[C@H](CO)OC(=O)CCCCCCC -0.17

Consider the compound CC/C(=C(\c1ccccc1)c1ccc(OCCN(C)C)cc1)c1ccccc1 [Tamoxifen Citrate] . State its measured MALAT1 nuclear FISH intensity. 0.495

Using known records, supply MALAT1 nuclear FISH intensity for O=C(O)CC(O)(CC(=O)O)C(=O)O -1.03

State its MALAT1 nuclear FISH intensity for this compound: COC(=O)CCc1ccc(OCC(O)CNC(C)C)cc1 (centres undefined) 0.156

Tell us which MALAT1 nuclear FISH intensity value is on record for C[C@H](Cn1cnc2c(N)ncnc21)OCP(=O)(O)O -0.114

###

Hi there, I'd appreciate the recorded nuclear count per well for every entry that follows.
test system: HeLa; assay: nuclear count per well, robust Z-score vs DMSO; higher = more cells (less toxicity); conditions: 10 µM; 6 h
Format: numeric value only, no unit, no commentary.

Provide nuclear count per well value for the following molecule: Nc1ccc(O)c(C(=O)O)c1 [Mesalamine] 1.26

Return value of nuclear count per well for input CC1(C)S[C@@H]2[C@H](NC(=O)COc3ccccc3)C(=O)N2[C@H]1C(=O)O [Penicillin V Potassium] , no commentary. -0.676

Identify measured nuclear count per well corresponding to COc1ccc2[nH]c([S+]([O-])Cc3ncc(C)c(OC)c3C)nc2c1 (centres undefined) [Omeprazole] -0.664

Read off the recorded nuclear count per well for CN(Cc1ccc(C(C)(C)C)cc1)Cc1cccc2ccccc12 0.943

Given the molecule COc1ccc2[nH]cc(CCNC(C)=O)c2c1 [Melatonin] , write its reported nuclear count per well. 0.0513

Look up and report measured nuclear count per well for this entry: CCCCC[C@H](O)/C=C/[C@H]1[C@H](O)CC(=O)[C@@H]1C/C=C\CCCC(=O)O [Dinoprostone] -0.453

Check the records and state nuclear count per well for CCCCCCc1ccc(O)cc1O [Hexylresorcinol] -0.222

Give recorded nuclear count per well. Cn1c(=O)c2c(ncn2CC(O)CO)n(C)c1=O (centres undefined) [Dyphylline] 1.46

Determine from records and report nuclear count per well for C#C[C@]1(O)CC[C@H]2[C@@H]3CCC4=CC(=O)CC[C@@H]4[C@H]3C(=C)C[C@@]21CC [Etonogestrel] -1.34
